tested.system: T1, human IL-36R (human, UniProt Q9HB29 20-575)
T1 sequence (looked up): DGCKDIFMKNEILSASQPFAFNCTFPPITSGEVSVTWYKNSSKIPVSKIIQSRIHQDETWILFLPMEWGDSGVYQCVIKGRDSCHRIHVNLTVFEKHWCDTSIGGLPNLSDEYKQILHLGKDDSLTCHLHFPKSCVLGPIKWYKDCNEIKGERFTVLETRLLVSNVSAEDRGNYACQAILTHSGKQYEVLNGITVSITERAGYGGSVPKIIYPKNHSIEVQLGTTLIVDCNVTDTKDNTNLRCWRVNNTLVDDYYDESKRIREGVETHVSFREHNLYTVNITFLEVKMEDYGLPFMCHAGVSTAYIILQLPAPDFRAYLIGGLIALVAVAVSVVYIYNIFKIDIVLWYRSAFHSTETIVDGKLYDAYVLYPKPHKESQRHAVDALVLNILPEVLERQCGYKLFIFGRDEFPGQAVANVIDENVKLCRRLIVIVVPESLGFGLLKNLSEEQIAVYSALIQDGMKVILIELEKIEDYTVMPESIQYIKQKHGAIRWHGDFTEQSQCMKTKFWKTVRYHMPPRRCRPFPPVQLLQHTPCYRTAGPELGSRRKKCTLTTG
protocol.notes: cell-based or functional assay
Some binders, each annotated with its measured IC50 of IL-6 release, NCI/ADR-RES cells stimulated with IL-36α.
Reply numerically in µg/mL, unit not repeated.

Reference set, count: 2
humanized anti-IL-36R antibody 900513 (antibody, V domains shown, IgG1 (vector with L234A, L235A) and human kappa) VH: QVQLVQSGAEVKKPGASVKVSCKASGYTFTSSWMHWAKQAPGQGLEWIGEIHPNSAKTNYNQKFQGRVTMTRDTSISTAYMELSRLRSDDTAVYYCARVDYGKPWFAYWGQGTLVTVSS VL: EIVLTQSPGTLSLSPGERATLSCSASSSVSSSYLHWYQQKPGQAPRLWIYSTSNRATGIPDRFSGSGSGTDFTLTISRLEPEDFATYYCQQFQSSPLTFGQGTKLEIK : 0.0124
humanized anti-IL-36R antibody 900534 (antibody, V domains shown, IgG1 (vector with L234A, L235A) and human kappa) VH: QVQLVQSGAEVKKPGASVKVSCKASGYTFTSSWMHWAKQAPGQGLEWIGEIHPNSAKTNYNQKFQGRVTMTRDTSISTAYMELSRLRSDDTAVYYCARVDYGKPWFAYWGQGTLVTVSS VL: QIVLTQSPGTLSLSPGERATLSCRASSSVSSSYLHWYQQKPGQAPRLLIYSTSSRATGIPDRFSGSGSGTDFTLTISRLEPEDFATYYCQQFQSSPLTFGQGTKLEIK : 0.0216

Now let's try a different one.
Task: Given the binder anti-IL-36R chimeric antibody 900497 (antibody, V domains shown, Human-mouse chimera: human IgG1 heavy constant region with L234A and L235A (Eu numbering), human kappa light constant region) VH: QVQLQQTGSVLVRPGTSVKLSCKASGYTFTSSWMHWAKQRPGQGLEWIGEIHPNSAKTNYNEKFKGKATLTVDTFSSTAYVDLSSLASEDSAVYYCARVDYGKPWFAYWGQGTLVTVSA VL: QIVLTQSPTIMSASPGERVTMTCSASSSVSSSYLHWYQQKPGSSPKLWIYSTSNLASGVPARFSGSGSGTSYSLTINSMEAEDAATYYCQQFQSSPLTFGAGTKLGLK , write its reported IC50 of IL-6 release, NCI/ADR-RES cells stimulated with IL-36α.
Output: 0.0332
